# tested-on: KRAS
# study-conditions: ASO, A431, 5 µM
After the bases stand the sugars from the 5' end (letter, count) and the backbone: PS all phosphorothioate, else s phosphorothioate and o phosphodiester by linkage. Methylation of C is not given here. e = 2'-O-(2-methoxyethyl) (MOE); k = constrained ethyl (cEt); d = 2'-deoxy (DNA)
property: target mRNA inhibition (%)
Numbers only, in %.

Record excerpt, results attached:
I am curious: what target mRNA inhibition value has been reported for CCATTCAAAGTTCACA (sugars kkddddddddddkeke, PS) ?
67

Proceed to GATTGTGCTGAGCTTG (sugars kkdddddddddkdkdk, PS)
58

Proceed to GGTGTAACATAGGTTA (sugars kkddddddddkekekk, PS)
58

Proceed to GTGTTTATGCAATGTT (sugars k3 d9 k3 e1, PS)
88

Proceed to TGGTGTAACATAGGTT (sugars kkddddddddddkeke, PS)
87

Proceed to TTGATTTGTCAGCAGG (sugars kkddddddddddkeke, PS)
83

For every record below, what is its target mRNA inhibition?
1. TGGTGTAACATAGGTT (sugars k3 d9 k3 e1, PS)
2. TGTTTATGCAATGTTA (sugars k3 d9 k3 e1, PS)
3. TGGTGTAACATAGGTT (sugars kkdddddddddkdkdk, PS)
4. CAGTGTGACTCAGTTA (sugars kkkddddddddkdkdk, PS)

[80, 90, 75, 66]

For every record below, what is its target mRNA inhibition?
1. TGATTTGTCAGCAGGA (sugars kkddddddddddkeke, PS)
2. TCCATTTATGTGACTA (sugars k3 d10 k3, PS)
3. AGTCTATTTCAGGCGG (sugars k3 d10 k3, PS)
4. GTGTTTATGCAATGTT (sugars kkkdddddddddkeke, PS)
5. ATGGTGTAACATAGGT (sugars k3 d10 k3, PS)
6. CAGTGTGACTCAGTTA (sugars kkkddddddddkekek, PS)

8
78
50
85
75
71

I am curious: what target mRNA inhibition value has been reported for ATGCTGTGAAACTCTC (sugars k3 d10 k3, PS) ?
72

----------
# tested-on: MALAT1
# study-conditions: ASO, A431, 0.005 µM
After the bases stand the sugars from the 5' end (letter, count) and the backbone: PS all phosphorothioate, else s phosphorothioate and o phosphodiester by linkage. Methylation of C is not given here. k = constrained ethyl (cEt); d = 2'-deoxy (DNA)
property: target mRNA inhibition
Please answer using a numeric value trailed by its unit.

I am curious: what target mRNA inhibition value has been reported for GATCTTGAATTACTTC (sugars k3 d10 k3, PS) ?
49%

Proceed to TGAGGCAAACGAAACA (sugars k3 d10 k3, PS)
16%

Proceed to TGCCATCTACTATTTC (sugars k3 d10 k3, PS)
19%

For every record below, what is its target mRNA inhibition?
1. AGTCCAATGCAAAAAC (sugars k3 d10 k3, PS)
2. TGCCAACAGCACAGCG (sugars k3 d10 k3, PS)
3. GAAAAAGCTTGTTCAC (sugars k3 d10 k3, PS)

1. 23%
2. 1%
3. 28%

----------
Please go through the items and note down their target mRNA inhibition.
# tested-on: ANGPTL2
# study-conditions: ASO, 5 µM
After the bases stand the sugars from the 5' end (letter, count) and the backbone: PS all phosphorothioate, else s phosphorothioate and o phosphodiester by linkage. Methylation of C is not given here. l = locked nucleic acid (LNA); d = 2'-deoxy (DNA)
Numbers only, in %.

Record excerpt, results attached:
I am curious: what target mRNA inhibition value has been reported for GCAAAGGTCAGAAACATC (sugars l3 d12 l3, PS) ?
28.8

Proceed to TTGAGATTCCCCCAAAG (sugars l2 d11 l4, PS)
28.3

Proceed to CTATCCTCTCCCAAACATG (sugars l1 d16 l2, PS)
16

Proceed to AGGCCAACACTAACTCG (sugars l2 d13 l2, PS)
70.5

Proceed to GAGTTGAAGGGAGGTGC (sugars l1 d14 l2, PS)
17.7

Proceed to TCCAGGGTGGTGAACTG (sugars l2 d13 l2, PS)
25.1

Proceed to CCAGCCGCAGCTTATA (sugars l1 d13 l2, PS)
21.8

Proceed to ACACCCAAGACTCAGAT (sugars l4 d11 l2, PS)
6.49

Proceed to AGGGGCTATGACTATCC (sugars l1 d14 l2, PS)
41.3

Proceed to TTGATGATGCGGTTGTAGG (sugars l2 d15 l2, PS)
55.3

For every record below, what is its target mRNA inhibition?
1. AGTTGATAGTTTATCTCC (sugars l2 d14 l2, PS)
2. CCTTTTCACTCTCAATAT (sugars l3 d13 l2, PS)

51.7
36.8

For every record below, what is its target mRNA inhibition?
1. CAGGTGCTGGTACTTGTG (sugars l1 d15 l2, PS)
2. TTGGACAACTAGGCAGCA (sugars l3 d13 l2, PS)
3. TAGTGGGCACAGTTTCC (sugars l1 d14 l2, PS)
4. GAACCATTTTGAGATTCCC (sugars l1 d16 l2, PS)
5. CAGCTCATTGTTGAGCA (sugars l2 d13 l2, PS)
6. ACAAGCCAGTTGTATGT (sugars l1 d12 l4, PS)

[40.4, 38.8, 21.2, 27.6, 0.32, 58.2]

For every record below, what is its target mRNA inhibition?
1. TTAACAGAGCCATCCAGG (sugars l1 d15 l2, PS)
2. GCTGGAAAGAGGGATAGA (sugars l2 d14 l2, PS)
3. AGTTCTGTTTGATCTTC (sugars l2 d11 l4, PS)
4. CGGTTGTAGGTGGGTGG (sugars l1 d14 l2, PS)
5. GAGCCTTTACATGCCG (sugars l2 d12 l2, PS)
6. AACCATTTTGAGATTCC (sugars l4 d11 l2, PS)
7. GAACCATTTTGAGATTCC (sugars l3 d13 l2, PS)
8. AACCATTTTGAGATTCCC (sugars l3 d13 l2, PS)

24.9
60.7
52.7
21.1
41
67.7
56.6
40.2

----------
Please go through the items and note down their target mRNA inhibition.
# tested-on: IRF5
# study-conditions: ASO, KARPAS-229, 4 µM
After the bases stand the sugars from the 5' end (letter, count) and the backbone: PS all phosphorothioate, else s phosphorothioate and o phosphodiester by linkage. Methylation of C is not given here. e = 2'-O-(2-methoxyethyl) (MOE); k = constrained ethyl (cEt); d = 2'-deoxy (DNA)
Answers are plain numbers, in %.

I am curious: what target mRNA inhibition value has been reported for AGCTTGGTCTTGACCT (sugars kkkddddddddkekek, PS) ?
3

Proceed to GTGTATTTCCCTGTCT (sugars kkddddddddkekekk, PS)
0

Proceed to AGTGAGTCTCAAACCA (sugars k3 d10 k3, PS)
0

Proceed to CTGTCACATCTCCACA (sugars kkdddddddddkdkdk, PS)
6

Proceed to GAAGTGAGTCTCAAAC (sugars kkddddddddkekekk, PS)
27

Proceed to GGAGTGAGACGAGCAA (sugars kkdddddddddkdkdk, PS)
16

For every record below, what is its target mRNA inhibition?
1. TCCAATTTTGCATTCC (sugars kkddddddddkekekk, PS)
2. GAGTCATGGGCTGAGG (sugars kdddddddddkekeke, PS)
3. CCAATGCAACATCCAT (sugars kkdddddddddkekek, PS)
4. GGTGTATTTCCCTGTC (sugars kkkddddddddkekek, PS)
5. GATGGTGTTATCTCCG (sugars k3 d9 k3 e1, PS)

1. 15
2. 0
3. 0
4. 0
5. 0

----------
# tested-on: IRF5
# study-conditions: ASO, A-431, 0.11111 µM
After the bases stand the sugars from the 5' end (letter, count) and the backbone: PS all phosphorothioate, else s phosphorothioate and o phosphodiester by linkage. Methylation of C is not given here. e = 2'-O-(2-methoxyethyl) (MOE); k = constrained ethyl (cEt); d = 2'-deoxy (DNA); m = 2'-O-methyl
Please note: met applies when target mRNA inhibition is 40% or greater, and not met applies otherwise.

Hi, just wondering whether TGTCTAGTGTCATGGA (sugars kkdkdddddddeeekk, PS) shows target mRNA inhibition of 40% or higher.
not met

Proceed to TCTGATATGATACCTA (sugars k3 d10 k3, PS)
met

Proceed to TGTCTAGTGTCATGGA (sugars kkddkddddddeeekk, PS)
not met

Further cases:
Hi, just wondering whether TCTGAUATGATACCTA (sugars k3 d2 m1 d7 k3, PS) shows target mRNA inhibition of 40% or higher.
met

----------
# tested-on: KRAS
# study-conditions: ASO, A431, 1.667 µM
After the bases stand the sugars from the 5' end (letter, count) and the backbone: PS all phosphorothioate, else s phosphorothioate and o phosphodiester by linkage. Methylation of C is not given here. e = 2'-O-(2-methoxyethyl) (MOE); k = constrained ethyl (cEt); d = 2'-deoxy (DNA)
Please go through the items and note down their target mRNA inhibition.
One number for each entry, in %.

Record excerpt, results attached:
I am curious: what target mRNA inhibition value has been reported for GTGTTTATGCAATGTT (sugars k3 d9 k3 e1, PS) ?
79

Proceed to TGGTGTAACATAGGTT (sugars kkddddddddddkeke, PS)
74

Proceed to CCATTCAAAGTTCACA (sugars kkddddddddddkeke, PS)
50

Proceed to TGATTTGTCAGCAGGA (sugars kkddddddddddkeke, PS)
67

Proceed to CAGTGTGACTCAGTTA (sugars kkkddddddddkdkdk, PS)
45

For every record below, what is its target mRNA inhibition?
1. CAGTGTGACTCAGTTA (sugars kkkddddddddkekek, PS)
2. ATGGTGTAACATAGGT (sugars k3 d10 k3, PS)
3. TGGTGTAACATAGGTT (sugars k3 d9 k3 e1, PS)
4. TTGATTTGTCAGCAGG (sugars kkddddddddddkeke, PS)
5. GTGTTTATGCAATGTT (sugars kkkdddddddddkeke, PS)

1. 46
2. 59
3. 69
4. 62
5. 80
